This section presents molecules with their documented steady-state anisotropy (a), DMPC values.
- TEST SUMMARY: Steady-state fluorescence anisotropy in solvents and liposomes
- Type: physicochemical
- EXPERIMENTAL CONDITIONS: DMPC liposomes, 37° C., 1/a vs. 1/[lipid] plot
Where a name gives a salt, the structure may show the parent alone.
In your answer, state the number alone without any accompanying words.

These solved cases illustrate the format of a correct answer.
MOLECULE	MEASUREMENT
CCC1(O)C(=O)OCc2c1cc1n(c2=O)Cc2cc3c(Cl)c4c(cc3nc2-1)OCO4 (stereo not drawn)	0.202
CC[C@@]1(O)C(=O)OCc2c1cc1n(c2=O)Cc2cc3ccccc3nc2-1 [camptothecin]	0.127
CCC(O)(C(=O)O)c1cc2n(c(=O)c1CO)Cc1cc3ccccc3nc1-2 (stereo not drawn) [camptothecin carboxylate, camptothecin carboxylate sodium salt]	0.102

The molecule listed as CC[C@@]1(O)C(=O)OCc2c1cc1n(c2=O)Cc2cc3c(CN(C)C)c(O)ccc3nc2-1 [topotecan] shows steady-state anisotropy (a), DMPC equal to 0.125

The molecule listed as CCC1(O)C(=O)OCc2c1cc1n(c2=O)Cc2cc3cc(O)ccc3nc2-1 (stereo not drawn) [10-hydroxycamptothecin] shows steady-state anisotropy (a), DMPC equal to 0.191

The molecule listed as CCC1(O)C(=O)OCc2c1cc1n(c2=O)Cc2cc3cc4c(cc3nc2-1)OCO4 (stereo not drawn) [10,11-methylenedioxycamptothecin] shows steady-state anisotropy (a), DMPC equal to 0.168

* * *

- TEST SUMMARY: Fluorescence excitation and emission spectra of camptothecin drugs free in solution and bound to liposomes
- Format: physicochemical
- EXPERIMENTAL CONDITIONS: DMPG liposomes 0.29 M, pH 7.4, 37° C.
PROPERTY LABEL: λMAX emission, DMPG (nm)
# unit: nm | format: bare number

These solved cases illustrate the format of a correct answer.
> print(dat)
                                   molecule       property.label  measurement
1  CCC1(O)C(=O)OCc2c1cc1n(c2=O)Cc2cc3c(N)cccc3nc2-1 (stereo not drawn) [9-aminocamptothecin]  λMAX emission, DMPG          436
2  CC[C@@]1(O)C(=O)OCc2c1cc1n(c2=O)Cc2cc3ccccc3nc2-1 [camptothecin]  λMAX emission, DMPG          422

The molecule listed as CCC1(O)C(=O)OCc2c1cc1n(c2=O)Cc2cc3cc4c(cc3nc2-1)OCO4 (stereo not drawn) [10,11-methylenedioxycamptothecin] shows λMAX emission, DMPG equal to 408

* * *

- TEST SUMMARY: HPLC assay of lactone ring hydrolysis, free in PBS or associated with liposomes or micelles
- Format: physicochemical
- EXPERIMENTAL CONDITIONS: DMPG liposomes, pH 7.4, 37° C.
- Excerpt: A high performance liquid chromatography assay was used to determine the rate of hydrolysis of camptothecin and topotecan free in aqueous solution and to compare such rates with the rate of hydrolysis for the same drugs when bound to the DMPG and DMPC liposome membranes. […] A Spectroflow model 980 fluorescence detector coupled to an HP 3392A integrator which acquired and processed the chromatograms, was used. […]
This section presents compounds with their documented C/L drug DMPG Lip. values.

> print(dat)
                                   compound  measurement
1  CC[C@@]1(O)C(=O)OCc2c1cc1n(c2=O)Cc2cc3ccccc3nc2-1          ~ 0

The compound listed as CCC1(O)C(=O)OCc2c1cc1n(c2=O)Cc2cc3cc4c(cc3nc2-1)OCO4 (stereo not drawn) shows C/L drug DMPG Lip. equal to ~ 0

The compound listed as CCC1(O)C(=O)OCc2c1cc1n(c2=O)Cc2cc3c(Cl)c4c(cc3nc2-1)OCO4 (stereo not drawn) shows C/L drug DMPG Lip. equal to ~ 0
